Listing: polymerase ribozyme fitness (log ratio) of selected variants
B1: TPR t1 (parent)
chain: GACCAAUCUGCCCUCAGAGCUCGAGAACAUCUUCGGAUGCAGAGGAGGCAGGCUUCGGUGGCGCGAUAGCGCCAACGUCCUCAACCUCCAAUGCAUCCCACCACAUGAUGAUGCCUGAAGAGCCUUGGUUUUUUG

Variants of: B1
test: polymerase ribozyme fitness, log enrichment relative to wild type (log ratio); higher = more active; in vitro selection for triplet polymerase activity
Answer using only a numeral; do not append any unit.

Below, each entry is followed by its recorded polymerase ribozyme fitness (log ratio) result.
get_value(item= A74G C123G , readout=polymerase ribozyme fitness (log ratio)) returns 1.31

Measured polymerase ribozyme fitness (log ratio), G57C C89G : -0.917

Reported polymerase ribozyme fitness (log ratio) ( C56U C98A G120U ) = -4.12

// sample A37C C62G A83U C88U , its polymerase ribozyme fitness (log ratio) was -2.61

The variant listed as U7G C12G A37G has a reported polymerase ribozyme fitness (log ratio) of 0.709

GET /value?item= C94A U109A &field=polymerase ribozyme fitness (log ratio) returns -5.96

The value of polymerase ribozyme fitness (log ratio) measured for the variant A6U G19U A121U turned out to be -1.67

Quick note, polymerase ribozyme fitness (log ratio) for C11A G60U A83U landed at -2.13

More entries:
Kindly note the recorded polymerase ribozyme fitness (log ratio) for C89A G120C , which is -0.369

Lab note: measured polymerase ribozyme fitness (log ratio) of C13G C85G C86A was -3.16

Per the record, C13U U14C G48U has polymerase ribozyme fitness (log ratio) of -3.25

Hey, just so you know, these numbers are from the RNAGym collection of RNA variant scans (doi:10.1073/pnas.2313332121).
